# Experiment Description: chemical genetic growth profiling, strain panel (AID 1159580);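 also: tested at 20 µM; growth read once vehicle control cultures reached saturation at 30 °C; 1 = growth at the plate median or of vehicle wells; lower values mean less growth of the strain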
# Run Parameters: S. cerevisiae deletion strains, growth OD, locus YDR001C, strain nth1, active compounds read low
In all, about 5,500 compounds went through this assay and about 2,000 (36%) were called active. Roughly 18% stayed inconclusive and do not appear here. Some of the results follow.
Endpoint Label: normalized growth
Respond with the number and no other words.

Recorded normalized growth, per entry:
• COc1ccc(C(=O)c2ccccc2)c(O)c1O = 0.975
• CCCCc1nc(Cl)c(CO)n1Cc1ccc(-c2ccccc2-c2nn[nH]n2)cc1 = 0.992
• c1ccc2c(Cc3c[nH]c4ccccc34)c[nH]c2c1 = 0.824
• CCCCCCCCCCCCCCCCCCOCC(O)CO (stereo not drawn) = 0.995
• CNCC[C@@H](Oc1ccccc1)c1ccccc1 = 0.974

Briefly, normalized growth measured for COc1cc2cc3c4cc(OC)c(OC)cc4cc[n+]3c(C)c2cc1OC : 1.01

Briefly, normalized growth measured for COC1(C)CCC2OC2(C)CCC2C1CC2(C)C (stereo not drawn) : 1.01

Briefly, normalized growth measured for CCC1(CC)C(=O)C=CNC1=O : 0.997

Briefly, normalized growth measured for COc1ccc(C(=O)c2ccc(O)cc2)c(O)c1O : 0.973
